# System: RAW264.7
# TEST_NAME: Cytotoxicity against mouse RAW264.7 cells assessed as reduction in cell viability at 50 uM by MTT assay
# Format: cell-based
# PARTICULARS: raw264.7, 50 µM
ENDPOINT_NAME: Activity

Field: example entries. Status: answers known.
COc1ccc(/C=C/[C@H](c2ccc(O)cc2)c2cc(-c3coc4cc(OC)cc(O)c4c3=O)c(O)cc2O)c(OC)c1; Non-Toxic
COc1ccc([C@H](/C=C/c2ccc(O)cc2)c2cc(-c3coc4cc(OC)cc(O)c4c3=O)c(O)cc2O)c(OC)c1; Non-Toxic
COc1ccc2c(c1)O[C@@H](c1ccc(OC)cc1OC)[C@H](Cc1ccc(O)cc1)[C@H]2/C=C/c1ccc(O)cc1; Non-Toxic
COc1ccc2c(c1)O[C@@]1(/C=C/c3ccc(O)cc3)c3ccc(OC)cc3O[C@H]2[C@H]1Cc1ccc(O)cc1; Non-Toxic

Let us examine a further case.
What the record says about C[C@H]1[C@H](C)CC[C@]2(C=O)CC[C@]3(C)C(=CC[C@@H]4[C@@]5(C)CC[C@H](O)C(C)(C)[C@@H]5CC[C@]43C)[C@H]12 [OLEANOALDEHYDE] : Activity is Non-Toxic

Ref: ChEMBL document CHEMBL4414604
